target: Cbl-b (Homo sapiens, UniProt Q13191); assay: Cbl-b activity assay (Cbl-b inhibition assay), TR-FRET of Cbl-b interaction with UbcH5B-Ub; type: biochemical; conditions: assay buffer with 100 mM NaCl, 60 nM Src kinase; read-out: Cbl-b activity IC50
Sequence (Q13191 36-427): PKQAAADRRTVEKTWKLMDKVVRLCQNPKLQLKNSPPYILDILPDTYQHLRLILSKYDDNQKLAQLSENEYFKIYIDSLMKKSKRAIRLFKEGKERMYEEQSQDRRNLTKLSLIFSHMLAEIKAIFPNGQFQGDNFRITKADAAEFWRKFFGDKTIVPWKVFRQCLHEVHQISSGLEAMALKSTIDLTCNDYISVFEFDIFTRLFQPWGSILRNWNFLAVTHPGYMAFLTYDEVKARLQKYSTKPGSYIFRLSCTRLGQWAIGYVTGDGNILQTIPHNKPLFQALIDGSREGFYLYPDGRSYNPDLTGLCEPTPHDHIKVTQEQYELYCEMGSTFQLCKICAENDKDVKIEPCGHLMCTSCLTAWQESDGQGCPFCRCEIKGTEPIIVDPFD
Below is a list of entries, each paired with its recorded IC50 value.

compound	measured.metric	value
Cn1cnnc1CC1(c2cccc(N3Cc4c(cc(CN5CC(C)(F)C5)cc4C(F)(F)F)C3=O)c2)COC1 [Compound 424]	IC50	< 100 nM
C[C@H](Cc1nncn1C)c1cccc(NC(=O)c2ccn(C)n2)c1 [Compound 197]	IC50	1000 to 3000 nM

Ask: Answer with the recorded IC50 for the compound listed here: CC(Sc1nncn1C)c1cccc(NC(=O)c2ccc3c(n2)CCCC3)c1 (stereo not shown) [Compound 23]
Reply: 1000 to 3000 nM

Ask: Indicate its recorded IC50; the compound in question is Cn1cnnc1C(F)(F)[C@](C)(F)c1cccc(N2Cc3c(cc(CN4CCC(F)(F)C4)cc3C(F)(F)F)C2=O)c1 [Compound 448]
Reply: < 100 nM

---

test system: T-cell; assay: IL-2 secretion from T-cells stimulated with anti-CD3 antibody alone (Biological Example 2); assay type: cell-based; conditions: 8 μM compound, primary human total T-cells, read-out: IL-2 secretion, Anti-CD3 stimulation, fold change over baseline
Attribute: fold induction at 8 µM

C[C@H](Cc1nncn1C)c1cccc(N2Cc3c(cc([C@@H]4CCCNC4)cc3C(F)(F)F)C2=O)c1 > 0.201
C[C@H](Cc1n[nH]cc1C(F)(F)F)c1cccc(N2Cc3c(cc(C(=O)N4CC[C@H](O)C4)cc3C(F)(F)F)C2=O)c1 0.151 to 0.2
C[C@H](Cc1nncn1C)c1cccc(N2Cc3c(cc([C@@H](C)N4CC[C@H](F)C4)cc3C(F)(F)F)C2=O)c1 > 0.201

We next turn to a different compound, shown below.
Ask: Let me know recorded fold induction at 8 µM for Cc1conc1C[C@@H](C)c1cccc(N2Cc3c(cc(C(=O)N4CC[C@H](O)C4)cc3C(F)(F)F)C2=O)c1 , thanks.
Reply: > 0.201

---

system: primary human total T-cells; experiment: T-cell activation assessed by CD69 expression; assay type: cell-based; conditions: CD3/CD28 stimulation, CD8 T-cells, 1.11 μM, read-out: % CD69+ (CD8)
measured.metric: fold induction at 1.11 µM

molecule	fold induction at 1.11 µM
C[C@H](Cc1nncn1C)c1cccc(N2Cc3c(cc(CN4CC[C@](C)(O)C4)cc3C(F)(F)F)C2=O)c1	1.2 to 1.4
C[C@H](Cc1nncn1C)c1cccc(N2Cc3c(ccnc3C3CC3)C2=O)c1	≤ 1.2
C[C@H](Cc1nncn1C)c1cccc(N2Cc3c(cccc3C(F)(F)F)C2=O)c1 [Compound 255a]	≤ 1.2
Cc1cc(C(=O)Nc2cccc(C3(Cc4nncn4C)COC3)c2)nc(C2CC2)n1	1.2 to 1.4
C[C@H](c1cc2c(c(C(F)(F)F)c1)CN(c1cccc(C3(Cc4nncn4C)COC3)c1)C2=O)N1CC[C@H](F)C1	1.2 to 1.4

Ask: Kindly indicate its recorded fold induction at 1.11 µM. Item: Cn1cnnc1C(F)(F)[C@](C)(F)c1cccc(N2Cc3c(cc(CN4CC[C@@H](C#N)C4)cc3C(F)(F)F)C2=O)c1
Reply: 1.2 to 1.4

Ask: Specify measured fold induction at 1.11 µM for Cn1cnnc1CC1(c2cccc(N3Cc4c(cc(CN5CC(F)C5)cc4C(F)(F)F)C3=O)c2)COC1 .
Reply: 1.2 to 1.4
